The reported numbers originate from patent US8338465B2.

molecular target: dihydrolipoamide acyltransferase (DlaT) (Mycobacterium tuberculosis); experiment: DlaT inhibition (Dlat IC50); DTNB peroxidase assay with Lpd, DlaT and AhpD; format: biochemical; conditions: Table 1, Compounds A1 to A294; read-out: Dlat IC50 category
Sequence (P9WIS7 whole entry): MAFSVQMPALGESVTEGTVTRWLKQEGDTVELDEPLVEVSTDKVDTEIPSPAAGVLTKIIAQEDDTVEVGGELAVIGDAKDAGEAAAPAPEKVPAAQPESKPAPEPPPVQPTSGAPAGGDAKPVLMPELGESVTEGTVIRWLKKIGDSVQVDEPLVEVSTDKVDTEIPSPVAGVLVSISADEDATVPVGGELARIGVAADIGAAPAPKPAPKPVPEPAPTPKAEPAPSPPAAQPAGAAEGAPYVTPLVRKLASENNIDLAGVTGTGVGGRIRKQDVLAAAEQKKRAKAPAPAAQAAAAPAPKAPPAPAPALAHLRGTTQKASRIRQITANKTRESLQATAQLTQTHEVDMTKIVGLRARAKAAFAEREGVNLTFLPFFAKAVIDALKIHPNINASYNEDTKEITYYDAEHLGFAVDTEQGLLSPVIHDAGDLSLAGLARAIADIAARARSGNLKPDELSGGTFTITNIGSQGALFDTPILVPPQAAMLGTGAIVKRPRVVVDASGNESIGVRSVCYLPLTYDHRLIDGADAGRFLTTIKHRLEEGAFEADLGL
Reported IC50 values follow for various compounds
REPORTED_PROPERTY: IC50

>  <COMPOUND>
Cc1ccc(C(=O)O)cc1N1C(=O)C(=Cc2ccc(-c3ccc(C(C)(C)C)cc3)o2)SC1=S [Compound A80]

>  <TARGET_OF_ASSAY>
dihydrolipoamide acyltransferase (DlaT) (Mycobacterium tuberculosis)

>  <REPORTED_PROPERTY>
IC50

>  <TEST_VALUE>
< 10 µM

$$$$
>  <COMPOUND>
CSc1ccc(-c2ccc(C=C3SC(=S)N(c4cccc(C(=O)O)c4)C3=O)o2)cc1 [Compound A238]

>  <TARGET_OF_ASSAY>
dihydrolipoamide acyltransferase (DlaT) (Mycobacterium tuberculosis)

>  <REPORTED_PROPERTY>
IC50

>  <TEST_VALUE>
< 10 µM

$$$$
>  <COMPOUND>
O=C(O)c1cccc(N2C(=O)C(=Cc3ccc(-c4ccc(Br)cc4)o3)SC2=S)c1 [Compound A123]

>  <TARGET_OF_ASSAY>
dihydrolipoamide acyltransferase (DlaT) (Mycobacterium tuberculosis)

>  <REPORTED_PROPERTY>
IC50

>  <TEST_VALUE>
11 to 40 µM

$$$$
>  <COMPOUND>
CCCCOc1ccc(-c2ccc(C=C3SC(=S)N(c4cc(C(=O)O)ccc4F)C3=O)o2)cc1 [Compound A227]

>  <TARGET_OF_ASSAY>
dihydrolipoamide acyltransferase (DlaT) (Mycobacterium tuberculosis)

>  <REPORTED_PROPERTY>
IC50

>  <TEST_VALUE>
11 to 40 µM

$$$$
>  <COMPOUND>
CCc1ccccc1-c1ccc(C=C2SC(=S)N(c3cc(C(=O)O)ccc3F)C2=O)o1 [Compound A250]

>  <TARGET_OF_ASSAY>
dihydrolipoamide acyltransferase (DlaT) (Mycobacterium tuberculosis)

>  <REPORTED_PROPERTY>
IC50

>  <TEST_VALUE>
< 10 µM

$$$$
>  <COMPOUND>
Cc1ccccc1-c1cccc(C=C2SC(=S)N(c3cccc(C(=O)O)c3)C2=O)c1 [Compound A173]

>  <TARGET_OF_ASSAY>
dihydrolipoamide acyltransferase (DlaT) (Mycobacterium tuberculosis)

>  <REPORTED_PROPERTY>
IC50

>  <TEST_VALUE>
11 to 40 µM

$$$$
>  <COMPOUND>
O=C(O)c1cccc(N2C(=O)C(=Cc3ccc(-c4ccccc4O)o3)SC2=S)c1 [Compound A162]

>  <TARGET_OF_ASSAY>
dihydrolipoamide acyltransferase (DlaT) (Mycobacterium tuberculosis)

>  <REPORTED_PROPERTY>
IC50

>  <TEST_VALUE>
< 10 µM

$$$$
>  <COMPOUND>
O=C(O)c1cc(N2C(=O)C(=Cc3ccc(-c4ccccc4OC(F)(F)F)o3)SC2=S)ccc1F [Compound A281]

>  <TARGET_OF_ASSAY>
dihydrolipoamide acyltransferase (DlaT) (Mycobacterium tuberculosis)

>  <REPORTED_PROPERTY>
IC50

>  <TEST_VALUE>
< 10 µM

$$$$
>  <COMPOUND>
Cc1ccccc1-c1ccc(C=C2SC(=S)N(c3cc(C(=O)O)cc(C(F)(F)F)c3)C2=O)o1 [Compound A234]

>  <TARGET_OF_ASSAY>
dihydrolipoamide acyltransferase (DlaT) (Mycobacterium tuberculosis)

>  <REPORTED_PROPERTY>
IC50

>  <TEST_VALUE>
< 10 µM

$$$$
>  <COMPOUND>
COc1ccc(-c2ccc(C=C3SC(=S)N(c4cccc(C(=O)O)c4)C3=O)o2)cc1 [Compound A152]

>  <TARGET_OF_ASSAY>
dihydrolipoamide acyltransferase (DlaT) (Mycobacterium tuberculosis)

>  <REPORTED_PROPERTY>
IC50

>  <TEST_VALUE>
11 to 40 µM

$$$$
>  <COMPOUND>
O=C(O)c1ccc(F)c(N2C(=O)C(=Cc3ccc(-c4c(Cl)cccc4Cl)o3)SC2=S)c1 [Compound A106]

>  <TARGET_OF_ASSAY>
dihydrolipoamide acyltransferase (DlaT) (Mycobacterium tuberculosis)

>  <REPORTED_PROPERTY>
IC50

>  <TEST_VALUE>
< 10 µM

$$$$
>  <COMPOUND>
COc1ccccc1-c1ccc(C=C2SC(=S)N(c3cccc(C(=O)O)c3C)C2=O)o1 [Compound A142]

>  <TARGET_OF_ASSAY>
dihydrolipoamide acyltransferase (DlaT) (Mycobacterium tuberculosis)

>  <REPORTED_PROPERTY>
IC50

>  <TEST_VALUE>
< 10 µM

$$$$
>  <COMPOUND>
CSc1cccc(-c2ccc(C=C3SC(=S)N(c4cccc(C(=O)O)c4)C3=O)o2)c1 [Compound A236]

>  <TARGET_OF_ASSAY>
dihydrolipoamide acyltransferase (DlaT) (Mycobacterium tuberculosis)

>  <REPORTED_PROPERTY>
IC50

>  <TEST_VALUE>
< 10 µM

$$$$
>  <COMPOUND>
O=C(O)c1cc(N2C(=O)C(=Cc3ccc(-c4ccc(Cl)c(Cl)c4)o3)SC2=S)ccc1Cl [Compound A108]

>  <TARGET_OF_ASSAY>
dihydrolipoamide acyltransferase (DlaT) (Mycobacterium tuberculosis)

>  <REPORTED_PROPERTY>
IC50

>  <TEST_VALUE>
< 10 µM

$$$$
>  <COMPOUND>
NC(=O)c1cccc(N2C(=O)C(=Cc3ccc(-c4ccc(Cl)cc4)o3)SC2=S)c1 [Compound A77]

>  <TARGET_OF_ASSAY>
dihydrolipoamide acyltransferase (DlaT) (Mycobacterium tuberculosis)

>  <REPORTED_PROPERTY>
IC50

>  <TEST_VALUE>
11 to 40 µM

$$$$
>  <COMPOUND>
O=C(O)COc1cccc(N2C(=O)C(=Cc3ccc(-c4ccc(Cl)cc4)o3)SC2=S)c1 [Compound A60]

>  <TARGET_OF_ASSAY>
dihydrolipoamide acyltransferase (DlaT) (Mycobacterium tuberculosis)

>  <REPORTED_PROPERTY>
IC50

>  <TEST_VALUE>
11 to 40 µM

$$$$
